Assignment: determine reported IC50 for the given compounds.
Target: Recombinant Btk (Homo sapiens (Human), UniProt Q06187)
Sequence (Q06187 whole entry): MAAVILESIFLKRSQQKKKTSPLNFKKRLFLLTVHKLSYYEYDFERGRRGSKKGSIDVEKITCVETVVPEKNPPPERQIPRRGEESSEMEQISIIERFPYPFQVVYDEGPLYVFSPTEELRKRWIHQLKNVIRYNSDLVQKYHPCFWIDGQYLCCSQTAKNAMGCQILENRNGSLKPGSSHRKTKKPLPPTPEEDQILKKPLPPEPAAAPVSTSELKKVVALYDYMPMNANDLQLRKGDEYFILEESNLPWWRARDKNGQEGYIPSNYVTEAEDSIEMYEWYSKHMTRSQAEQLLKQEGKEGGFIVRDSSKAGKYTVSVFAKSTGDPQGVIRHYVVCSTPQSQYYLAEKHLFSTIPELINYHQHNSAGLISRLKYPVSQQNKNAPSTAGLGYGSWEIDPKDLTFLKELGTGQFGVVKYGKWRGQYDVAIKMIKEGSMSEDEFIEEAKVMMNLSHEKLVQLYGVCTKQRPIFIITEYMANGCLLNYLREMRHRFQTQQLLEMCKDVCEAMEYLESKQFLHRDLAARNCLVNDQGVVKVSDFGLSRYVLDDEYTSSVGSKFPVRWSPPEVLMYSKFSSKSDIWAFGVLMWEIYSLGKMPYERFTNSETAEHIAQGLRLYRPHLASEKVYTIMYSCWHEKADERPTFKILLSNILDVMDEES
Experiment: BTK kinase assay (TR-FRET)
Conditions: read-out: IC50 (nM) Btk; 1 hour pre-incubation, ATP at Km
Structures can show the parent of a compound that is named as a salt.

Task: Input NC(=O)c1c(-c2ccc(Oc3ccccc3)cc2)nn2c1NCc1ccc(N)cc1-2 [Compound 68] , output reported IC50.
Output: 190 nM

Task: Input NC(=O)c1c(-c2ccc(Oc3ccccc3)cc2)nn2c1NCCC2c1ccccn1 (stereo not shown) [Compound 102] , output reported IC50.
Output: 830 nM

Task: Input C=CC(=O)N1CCc2[nH]c3c(C(N)=O)c(-c4ccc(OCC5CC5)cc4)nn3c2C1 [Compound 127] , output reported IC50.
Output: 300 nM

Task: Input NC(=O)c1c(-c2ccc(OC3CCCC3)cc2)nn2c1NCCC2c1ccccc1N (stereo not shown) [Compound 17] , output reported IC50.
Output: > 10000 nM

Task: Input NC(=O)c1c(-c2ccc(OC3CCOCC3)cc2)nn2c1NCCC2c1ccccc1N (stereo not shown) [Compound 23] , output reported IC50.
Output: 3200 nM

Task: Input NC(=O)c1c(-c2ccc(Oc3ccccc3)cc2)nn2c1NCCC21CCNCC1 [Compound 42, trifluoroacetate] , output reported IC50.
Output: 330 nM

Task: Input NC(=O)c1c(-c2ccc(Oc3ccccc3)cc2)nn2c(-c3cccc(N)c3)ccnc12 [Compound 7] , output reported IC50.
Output: > 10000 nM

Task: Input NC(=O)c1c(-c2ccc(Oc3ccccc3)cc2)nn2c1[nH]c(=O)c1cc(N)ccc12 [Compound 77] , output reported IC50.
Output: 480 nM

Task: Input C=CC(=O)Nc1ccc2c(c1)-n1nc(-c3ccc(Oc4ccccc4)cc3)c(C(N)=O)c1NC2 [Compound 69] , output reported IC50.
Output: 7.8 nM

Task: Input CC#CC(=O)NCC1CCNc2c(C(N)=O)c(-c3ccc(Oc4ccccc4)cc3)nn21 (stereo not shown) [Compound 185] , output reported IC50.
Output: 4.3 nM

Task: Input C=CC(=O)Nc1ccccc1C1CCNc2c(C(N)=O)c(-c3ccc(Cl)c(Cl)c3)nn21 (stereo not shown) [Compound 156] , output reported IC50.
Output: 0.55 nM

Task: Input C=CC(=O)N(C)CC1CCNc2c(C(N)=O)c(-c3ccc(Oc4ccccc4)cc3)nn21 (stereo not shown) [Compound 35] , output reported IC50.
Output: 1.1 nM

Task: Input NC(=O)c1c(-c2ccc(Oc3ccccc3)cc2)nn2c1[nH]c1cc(N)ccc12 [Compound 129] , output reported IC50.
Output: 23 nM

Task: Input CC#CC(=O)N1CCC(C2CCNc3c(C(N)=O)c(-c4ccc(Oc5cccc(Cl)c5)cc4)nn32)CC1 (stereo not shown) [Compound 195] , output reported IC50.
Output: 8 nM

Task: Input COCC#CC(=O)N1CCC([C@@H]2CCNc3c(C(N)=O)c(-c4ccc(Oc5ccccc5)cc4)nn32)CC1 [Compound 192] , output reported IC50.
Output: 0.91 nM

Task: Input COc1ccc(-c2nn3c(c2C(N)=O)NCCC3c2ccccc2N)cc1 (stereo not shown) [Compound 93] , output reported IC50.
Output: 1500 nM
